test system: OVCAR-8; test: Cytotoxicity against human OVCAR8 cells after 72 hrs by MTT assay; assay type: functional, cell-based; conditions: OVCAR-8, 72 h
pIC50: −log10 of the molar value.
Measured pIC50 accompanies every entry in the list below.
EXPERIMENTAL_ENDPOINT: pIC50

1. COc1ccc(NC(=S)NNC2=c3ccccc3=NC2=O)cc1 ... 5.17
2. COc1cccc2c1C(=O)c1c(O)c3c(c(O)c1C2=O)C[C@@](O)(C(=O)CO)C[C@@H]3O[C@H]1C[C@H](N)[C@H](O)[C@H](C)O1 [DOXORUBICIN] ... 6.85

###

system: SW-620; test: Cytotoxicity against human SW620 cells after 72 hrs by MTT assay; format: functional, cell-based; conditions: SW-620, 72 h
pIC50: −log10 of the molar value.
# Lookup of reported pIC50 keyed by entry
EXPERIMENTAL_ENDPOINT: pIC50

1) COc1cccc2c1C(=O)c1c(O)c3c(c(O)c1C2=O)C[C@@](O)(C(=O)CO)C[C@@H]3O[C@H]1C[C@H](N)[C@H](O)[C@H](C)O1 [DOXORUBICIN] ... 8.00
2) COc1ccc(NC(=S)NNC2=c3ccccc3=NC2=O)cc1 ... 5.04

###

system: CHO; assay: Cytotoxicity against CHO cells selected at 1 ug/mL colchicine after 72 hrs by MTT assay; format: functional, cell-based; conditions: Cricetulus griseus
EXPERIMENTAL_ENDPOINT: IC50 (µM)

1) COc1cccc2c1C(=O)c1c(O)c3c(c(O)c1C2=O)C[C@@](O)(C(=O)CO)C[C@@H]3O[C@H]1C[C@H](N)[C@H](O)[C@H](C)O1 [DOXORUBICIN] ... 9.7
2) COc1ccc(NC(=S)NNC2=c3ccccc3=NC2=O)cc1 ... 0.97

###

assay: Cytotoxicity against doxorubicin-selected human ZR-75B cells after 72 hrs by MTT assay; format: functional, cell-based
EXPERIMENTAL_ENDPOINT: IC50 (nM)

1. COc1ccc(NC(=S)NNC2=c3ccccc3=NC2=O)cc1 ... 1210
2. COc1cccc2c1C(=O)c1c(O)c3c(c(O)c1C2=O)C[C@@](O)(C(=O)CO)C[C@@H]3O[C@H]1C[C@H](N)[C@H](O)[C@H](C)O1 [DOXORUBICIN] ... 2020

###

experiment: Selectivity ratio of IC50 for pig LLC-PK1 cells transfected with empty vector to IC50 for pig LLC-PK1 cells; type: ADME, cell-based, Sus scrofa; details: read-out: Ratio IC50
EXPERIMENTAL_ENDPOINT: selectivity ratio

1) O=C1Nc2ccccc2/C1=N/NC(=S)Nc1ccc([N+](=O)[O-])cc1 ... 6.4
2) COc1ccc(NC(=S)NNC2=c3ccccc3=NC2=O)cc1 ... 9.2
3) CC(C)(C)c1ccc(NC(=S)N/N=C2\C(=O)Nc3ccccc32)cc1 ... 10.1

###

assay: Cytotoxicity against P-gp-negative human KB-3-1 cells after 72 hrs by MTT assay in presence of 10 uM CsA; type: functional, cell-based; settings: KB 3-1, 72 h
EXPERIMENTAL_ENDPOINT: IC50

1. COc1ccc(NC(=S)NNC2=c3ccccc3=NC2=O)cc1 ... 11.4 µM

###

experiment: Cytotoxicity against adriamycin-selected human MES-SA cells after 72 hrs by MTT assay; type: functional, cell-based
EXPERIMENTAL_ENDPOINT: IC50 (µM)

1) COc1cccc2c1C(=O)c1c(O)c3c(c(O)c1C2=O)C[C@@](O)(C(=O)CO)C[C@@H]3O[C@H]1C[C@H](N)[C@H](O)[C@H](C)O1 ... 0.87
2) COc1ccc(NC(=S)NNC2=c3ccccc3=NC2=O)cc1 ... 13.8

###

test system: NIH3T3; test: Cytotoxicity against 2.4 ug/mL vincristine selected mouse NIH/3T3 cells transfected with P-gp Ser to Asp phosphorylation mutant after 72 hrs by MTT assay; format: functional, cell-based; conditions: NIH3T3, 72 h
EXPERIMENTAL_ENDPOINT: IC50 (µM)

1. COc1cccc2c1C(=O)c1c(O)c3c(c(O)c1C2=O)C[C@@](O)(C(=O)CO)C[C@@H]3O[C@H]1C[C@H](N)[C@H](O)[C@H](C)O1 ... 17.5
2. COc1ccc(NC(=S)NNC2=c3ccccc3=NC2=O)cc1 ... 3.14

###

assay: Cytotoxicity against human MES-SA cells after 72 hrs by MTT assay; type: functional, cell-based
pIC50: −log10 of the molar value.
Reported pIC50 values are given for each entry in this list.
EXPERIMENTAL_ENDPOINT: pIC50

1. COc1ccc(NC(=S)NNC2=c3ccccc3=NC2=O)cc1 ... 4.65
2. COc1cccc2c1C(=O)c1c(O)c3c(c(O)c1C2=O)C[C@@](O)(C(=O)CO)C[C@@H]3O[C@H]1C[C@H](N)[C@H](O)[C@H](C)O1 [DOXORUBICIN] ... 7.52

###

test system: LLC-PK1; test: Cytotoxicity against pig LLC-PK1 cells transfected with empty vector after 72 hrs by MTT assay; format: cell-based; details: Sus scrofa, LLC-PK1, 72 h
pIC50: −log10 of the molar value.
EXPERIMENTAL_ENDPOINT: pIC50

1) COc1cccc2c1C(=O)c1c(O)c3c(c(O)c1C2=O)C[C@@](O)(C(=O)CO)C[C@@H]3O[C@H]1C[C@H](N)[C@H](O)[C@H](C)O1 ... 6.70
2) CC(C)(C)c1ccc(NC(=S)N/N=C2\C(=O)Nc3ccccc32)cc1 ... 4.53
3) O=C1Nc2ccccc2/C1=N/NC(=S)Nc1ccc([N+](=O)[O-])cc1 ... 4.55
4) COc1ccc(NC(=S)NNC2=c3ccccc3=NC2=O)cc1 ... 4.43

Origin of measurements: ChEMBL document CHEMBL1914305
